test system: HOP-62 NSCLC; experiment: NCI-60 one-dose screen, 48 h; settings: 10 µM unless noted
The panel holds about 83,000 compounds, 20% with a hit somewhere; the sample as a whole holds those more often. The source made the active and inactive calls. How the source made its calls: active means growth percent below 10; inactive means the rest.
Labels: label 1 for active, label 0 for inactive

| compound | group |
| --- | --- |
| CCCCCCCCCCNC(=O)CCl | label 0 |
| C=C(CN1CCN(c2cccc(C(F)(F)F)n2)CC1)c1ccc(C(=O)Nc2ccccc2N)cc1 | label 0 |
| CC(=O)OCC(=O)C1CCC=CC1OC(C)=O (stereo unspecified) | label 0 |
| CNc1nc(C)c(-c2nc(Nc3cccc(S(N)(=O)=O)c3)ncc2F)s1 | label 1 |
| Oc1cccc(Nc2nccc(-c3ccc4ccccc4c3)n2)c1 | label 0 |
| CCOC(=O)C(CC)n1c(=O)c2cc(OC)c(OC)cc2c2cnc3[nH]ccc3c21 (stereo unspecified) | label 0 |
| CCN(CC)CC(O)c1cc(-c2ccc(Cl)cc2)nc2c(C)c(Cl)ccc12 (stereo unspecified) | label 1 |
| COc1cccc(-c2nc3sccn3c2-c2ccnc(NCCCNS(=O)(=O)c3ccccc3)c2)c1 | label 0 |
| CC[C@@H](C)OC(=O)c1nn(C(C)=O)c2ccccc12 | label 0 |
| COc1ccc(-c2cc(/C=C3\C(=O)Nc4ccc(Cl)cc43)[nH]n2)cc1 | label 0 |
| CN1/C(=C\C=C\C2=[N+](C)c3ccccc3C2(C)C)C(C)(C)c2ccccc21 | label 1 |
